molecular target: hemagglutinin on live influenza A virus, A/California/4/09 H1N1 (Influenza A virus …); experiment: cell-based or functional assay
Assay endpoint: % Neutralization (%)
Enter your answer as a number in %; do not include the unit.

// returns reported % Neutralization for input TCN-534 (5249_B02) (antibody, V domains shown) VH: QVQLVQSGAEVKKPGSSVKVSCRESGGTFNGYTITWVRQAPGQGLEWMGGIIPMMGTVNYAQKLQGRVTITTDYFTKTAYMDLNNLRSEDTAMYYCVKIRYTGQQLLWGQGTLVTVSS VL: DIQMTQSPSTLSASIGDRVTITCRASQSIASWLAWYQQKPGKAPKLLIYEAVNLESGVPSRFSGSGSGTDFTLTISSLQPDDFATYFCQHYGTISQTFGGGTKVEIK
96.4

// returns reported % Neutralization for input TCN-557 (5081_A04) (antibody, V domains shown) VH: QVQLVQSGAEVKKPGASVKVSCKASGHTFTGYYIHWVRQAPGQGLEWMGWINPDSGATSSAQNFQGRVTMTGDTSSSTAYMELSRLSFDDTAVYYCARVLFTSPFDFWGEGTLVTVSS VL: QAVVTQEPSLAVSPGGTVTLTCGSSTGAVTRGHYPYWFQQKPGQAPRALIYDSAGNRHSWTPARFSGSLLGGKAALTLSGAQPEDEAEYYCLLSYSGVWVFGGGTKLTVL
10

// returns reported % Neutralization for input TCN-535 (5246_P19) (antibody, V domains shown) VH: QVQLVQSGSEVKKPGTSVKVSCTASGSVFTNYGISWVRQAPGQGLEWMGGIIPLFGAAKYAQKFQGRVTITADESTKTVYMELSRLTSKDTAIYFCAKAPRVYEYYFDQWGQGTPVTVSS VL: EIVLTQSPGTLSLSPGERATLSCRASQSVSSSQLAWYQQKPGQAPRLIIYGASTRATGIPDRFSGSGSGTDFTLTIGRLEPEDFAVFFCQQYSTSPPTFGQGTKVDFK
97.3

// returns reported % Neutralization for input TCN-551 (5243_D01) (antibody, V domains shown) VH: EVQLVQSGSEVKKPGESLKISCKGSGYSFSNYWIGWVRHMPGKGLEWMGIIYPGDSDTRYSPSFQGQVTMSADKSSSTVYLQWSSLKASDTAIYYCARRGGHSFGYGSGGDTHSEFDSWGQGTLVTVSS VL: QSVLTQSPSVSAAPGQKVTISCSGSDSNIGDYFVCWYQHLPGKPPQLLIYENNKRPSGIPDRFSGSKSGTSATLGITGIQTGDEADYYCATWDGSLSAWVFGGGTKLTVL
74

// returns reported % Neutralization for input TCN-545 (5082_I15) (antibody, V domains shown) VH: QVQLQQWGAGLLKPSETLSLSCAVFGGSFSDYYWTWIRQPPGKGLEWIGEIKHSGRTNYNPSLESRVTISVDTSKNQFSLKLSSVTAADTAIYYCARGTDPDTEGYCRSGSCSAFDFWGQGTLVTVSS VL: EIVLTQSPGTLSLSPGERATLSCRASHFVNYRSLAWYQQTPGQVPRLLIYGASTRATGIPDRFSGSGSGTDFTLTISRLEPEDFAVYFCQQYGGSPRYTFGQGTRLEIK
0

Kindly consider the entry below.
// returns reported % Neutralization for input TCN-504 (3251_K17) (antibody, V domains shown) VH: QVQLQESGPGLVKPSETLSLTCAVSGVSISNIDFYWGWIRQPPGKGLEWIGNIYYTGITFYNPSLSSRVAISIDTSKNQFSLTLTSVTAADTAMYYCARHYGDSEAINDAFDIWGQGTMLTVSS VL: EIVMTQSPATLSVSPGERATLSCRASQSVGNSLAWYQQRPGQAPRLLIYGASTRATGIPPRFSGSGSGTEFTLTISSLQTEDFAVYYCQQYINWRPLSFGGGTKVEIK
0
